B1: TPR t1 (parent)
chain: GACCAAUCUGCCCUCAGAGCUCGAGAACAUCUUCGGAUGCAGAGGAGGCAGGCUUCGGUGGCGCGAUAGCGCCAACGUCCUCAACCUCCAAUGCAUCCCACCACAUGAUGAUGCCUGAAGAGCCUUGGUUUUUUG

variants of: B1; experiment: polymerase ribozyme fitness, log enrichment relative to wild type (log ratio); higher = more active; in vitro selection for triplet polymerase activity
Each item that follows carries a reported polymerase ribozyme fitness (log ratio).
Just the number, please, no unit attached.

// below: answered variants
>  <Residue String>
GACCAAUCUGGCCUCAGAGCUCGAGAACAUCUUCGGAUGCAGAGGAGGCAGGCUUCGGUGGAGCGAUAGCGCCAACGUCCUCAACCUCCAAUGCAUCCCACCACAAGAUGAUGCCUGAAGAGCCUUGGUUUUUUG

>  <Result Number>
-0.272

$$$$
>  <Residue String>
GACCAAUCUGCCCUCAGAGCUCGAGAACAUCUUCGGAGGCAGAGGAGGCAGGCUUCGGUGUCGCGAUAGCGCCAACGUCCUCAACCUCCAAUGCAUCCCACCACAUGAUGAUGCCCGAAGAGCCUUGGUUUUUUG

>  <Result Number>
-1.78

$$$$
>  <Residue String>
GUCCAAUCUGCCCUCAGAGCUCGAGAACAUCUUCGGAUGCAGAGGAGGCGGGCUUCGGUGGCGCGAUAGCUCCAACGUCCUCAACCUCCAAUGCAUCCCACCACAUGAUGAUGCCUGGAGAGCCUUGGUUUUUUG

>  <Result Number>
-2.92

$$$$
>  <Residue String>
GACCAAUCUGCCCUCAGGGCUCGAGAACAUCUUCGGAUGCAGAGGAGGGAGGCUUCGGUGGCGCGAUAGCGCCAACGUCCUCAACCACAAAUGCAUCCCACCACAUGAUGAUGCCCGGAGAGCCUUGGUUUUUUG

>  <Result Number>
-4.85

$$$$
>  <Residue String>
GACCAAUCUGCCCUCAGAGCUCGAGAACAUCUUCGGAUGCAGAGGAGGCAGGCUUCGGUGGCACGAUAGCGCCAACGUCCUCAACCUCCAAUGCAUCCCACCACAUGAUGAUGCCUGAAGAGCAUUGGUUUUUUG

>  <Result Number>
0.45

$$$$

// polymerase ribozyme fitness (log ratio) lookup, variant = GACCAAUCUGCCCUCAGAGCUCGAGAACAUCUUCGGAUGCAGAGGAGGCAGGCUUCGGUGGCGCGAUAGUGCCAACGUCCUCAACCUCCAAUGCAUCCCACCACAUGAUGACGCCUGAAGAGCCUUGGUUUUUUG , result: 0.987

// polymerase ribozyme fitness (log ratio) lookup, variant = GACCAAUCUGCCCUCAGAGCUCGAGAACAUCUUCGGAUGCCCAGGAGGCAGGCUUCGGUGGCGCGAUAGCGCCAACGUCCUCAACCUCCAAUGCAUCCCACCACAAGAUGAUGCCUGAAGAGCCUUGGUUUUUUG , result: -2.3

// polymerase ribozyme fitness (log ratio) lookup, variant = GACCAAUCUGCCCUCAGACCUCGAGAACAUCUUCGGAUGCAGAGGAGGCAGGCUUCGGUGGCGCGAUACCGCCAACGUCCUCAACGUCCAAUGCAUCCCACCACAUGAUGAUGCCUGAAGGGCCUUGGUUUUUUG , result: -3.28
